target: EGFR-wt (Homo sapiens, UniProt P00533)
Sequence (P00533 25-1210): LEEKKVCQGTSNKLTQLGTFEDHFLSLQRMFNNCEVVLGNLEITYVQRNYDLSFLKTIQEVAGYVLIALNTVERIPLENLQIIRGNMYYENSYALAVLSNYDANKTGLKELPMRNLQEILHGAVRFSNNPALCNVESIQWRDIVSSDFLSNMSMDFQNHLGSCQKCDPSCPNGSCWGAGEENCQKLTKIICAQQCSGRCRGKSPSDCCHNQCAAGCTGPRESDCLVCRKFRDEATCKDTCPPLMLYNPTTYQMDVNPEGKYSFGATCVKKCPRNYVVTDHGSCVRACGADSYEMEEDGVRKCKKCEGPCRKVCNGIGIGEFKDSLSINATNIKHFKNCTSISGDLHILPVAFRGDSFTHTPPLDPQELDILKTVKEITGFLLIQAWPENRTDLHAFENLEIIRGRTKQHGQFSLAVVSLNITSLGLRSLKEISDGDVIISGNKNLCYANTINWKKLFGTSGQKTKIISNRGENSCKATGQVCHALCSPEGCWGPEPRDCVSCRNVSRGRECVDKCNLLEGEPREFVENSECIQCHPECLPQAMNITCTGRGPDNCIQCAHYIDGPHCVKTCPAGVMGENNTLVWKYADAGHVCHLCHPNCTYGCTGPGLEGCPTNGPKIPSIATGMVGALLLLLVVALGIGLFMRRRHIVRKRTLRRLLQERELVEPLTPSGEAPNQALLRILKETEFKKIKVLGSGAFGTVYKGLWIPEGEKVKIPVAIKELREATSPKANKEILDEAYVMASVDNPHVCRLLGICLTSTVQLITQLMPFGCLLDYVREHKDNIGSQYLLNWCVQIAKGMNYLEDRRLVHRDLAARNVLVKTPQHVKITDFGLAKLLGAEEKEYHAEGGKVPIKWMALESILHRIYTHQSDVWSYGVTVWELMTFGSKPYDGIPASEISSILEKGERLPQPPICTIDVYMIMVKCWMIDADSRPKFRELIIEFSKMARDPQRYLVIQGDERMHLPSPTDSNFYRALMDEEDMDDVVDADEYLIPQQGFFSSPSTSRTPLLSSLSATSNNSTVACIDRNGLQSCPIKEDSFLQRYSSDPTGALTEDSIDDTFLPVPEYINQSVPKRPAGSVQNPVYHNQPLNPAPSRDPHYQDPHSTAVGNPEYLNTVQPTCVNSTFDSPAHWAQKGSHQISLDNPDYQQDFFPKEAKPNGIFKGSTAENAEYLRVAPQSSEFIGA
recordedEndpoint: IC50 (nM)

> print(dat)
                                   compound  unitinfo  resultvalue
1  COC(=O)Cc1ccc(Oc2ncnc3sc4c(c23)CC[C@@H](C)C4)cc1 (racemic)        nM          324

----------
target: EGFR-L858R (Homo sapiens, UniProt P00533, L858R); assay: HTRF KinEASE-TK IC50 determination (Rauh Lab); settings: ATP at Km (9 µM); read-out: IC50, EGFR L858R mutant
Sequence (P00533 25-1210 L858R): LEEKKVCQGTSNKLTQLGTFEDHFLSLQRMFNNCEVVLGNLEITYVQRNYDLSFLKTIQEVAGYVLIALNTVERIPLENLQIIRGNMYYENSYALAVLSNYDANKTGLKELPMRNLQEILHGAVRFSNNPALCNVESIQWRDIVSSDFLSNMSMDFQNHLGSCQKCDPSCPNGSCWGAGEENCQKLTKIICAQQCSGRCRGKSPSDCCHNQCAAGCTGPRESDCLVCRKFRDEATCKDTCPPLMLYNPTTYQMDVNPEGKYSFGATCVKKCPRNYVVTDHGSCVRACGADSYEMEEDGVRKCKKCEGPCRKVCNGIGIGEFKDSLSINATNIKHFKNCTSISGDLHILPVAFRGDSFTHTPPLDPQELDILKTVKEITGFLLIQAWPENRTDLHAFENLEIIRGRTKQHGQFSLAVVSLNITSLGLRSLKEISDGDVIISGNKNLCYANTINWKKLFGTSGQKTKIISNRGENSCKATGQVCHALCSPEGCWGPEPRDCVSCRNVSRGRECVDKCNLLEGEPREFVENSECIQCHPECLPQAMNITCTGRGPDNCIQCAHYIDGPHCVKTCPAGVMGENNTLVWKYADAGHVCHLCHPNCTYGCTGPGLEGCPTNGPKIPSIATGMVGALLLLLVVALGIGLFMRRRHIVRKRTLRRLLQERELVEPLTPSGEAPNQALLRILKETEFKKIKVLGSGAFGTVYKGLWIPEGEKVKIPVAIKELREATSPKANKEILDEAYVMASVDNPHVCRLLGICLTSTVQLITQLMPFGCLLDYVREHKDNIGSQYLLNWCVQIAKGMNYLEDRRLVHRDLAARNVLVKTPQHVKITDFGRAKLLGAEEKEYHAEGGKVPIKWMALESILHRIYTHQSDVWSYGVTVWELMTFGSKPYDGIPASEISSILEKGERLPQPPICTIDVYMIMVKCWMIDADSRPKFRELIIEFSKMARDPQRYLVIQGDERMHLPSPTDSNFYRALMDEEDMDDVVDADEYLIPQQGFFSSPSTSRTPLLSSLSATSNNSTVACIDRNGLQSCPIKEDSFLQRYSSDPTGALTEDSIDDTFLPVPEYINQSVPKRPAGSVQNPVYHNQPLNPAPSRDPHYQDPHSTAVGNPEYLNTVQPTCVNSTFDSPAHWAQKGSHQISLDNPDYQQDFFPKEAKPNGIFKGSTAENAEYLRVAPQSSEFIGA
recordedEndpoint: IC50 (nM)

> print(dat)
                                   compound  recordedendpoint  unitinfo  resultvalue
1  COC(=O)Cc1ccc(Oc2ncnc3sc4c(c23)CC[C@@H](C)C4)cc1 (racemic)              IC50        nM         2350

The values you see were collected from paper PMC7865522.
